# assayed_target: Ubiquitin carboxyl-terminal hydrolase 1 (Homo sapiens) (UniProt O94782)
# Sequence (O94782 whole entry, looked up): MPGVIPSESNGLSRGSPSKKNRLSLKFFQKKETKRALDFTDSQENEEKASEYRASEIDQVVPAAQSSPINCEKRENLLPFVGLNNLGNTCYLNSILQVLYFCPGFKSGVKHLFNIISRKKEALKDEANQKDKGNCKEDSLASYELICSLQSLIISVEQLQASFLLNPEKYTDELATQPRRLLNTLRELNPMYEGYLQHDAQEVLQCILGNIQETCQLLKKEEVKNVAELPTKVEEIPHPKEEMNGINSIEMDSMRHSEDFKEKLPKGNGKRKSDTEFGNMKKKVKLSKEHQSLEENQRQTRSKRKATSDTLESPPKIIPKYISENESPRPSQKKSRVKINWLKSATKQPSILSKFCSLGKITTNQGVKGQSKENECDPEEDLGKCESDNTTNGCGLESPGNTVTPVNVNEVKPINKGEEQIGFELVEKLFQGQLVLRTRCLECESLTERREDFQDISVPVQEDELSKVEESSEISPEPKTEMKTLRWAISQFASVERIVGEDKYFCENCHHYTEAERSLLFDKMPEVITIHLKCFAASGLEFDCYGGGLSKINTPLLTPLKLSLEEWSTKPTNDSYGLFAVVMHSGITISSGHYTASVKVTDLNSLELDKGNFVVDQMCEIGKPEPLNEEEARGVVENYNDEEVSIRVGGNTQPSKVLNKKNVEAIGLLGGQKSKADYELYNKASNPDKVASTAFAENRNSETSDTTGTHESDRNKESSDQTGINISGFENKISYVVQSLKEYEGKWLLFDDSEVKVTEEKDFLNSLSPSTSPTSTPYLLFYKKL
# procedure_details: Inhibitors of USP1/UAF1: Pilot qHTS (AID 504865); also: nearly all actives have a fitted effect of over 35% in size
# measurement_setup: purified USP1/UAF1, Ub-rhodamine cleavage fluorescence; series mostly up to 114 µM
Inconclusive results are not listed. Activity calls are given as the source filed them. Calls follow the shape of the dose curve; as a rule, active = well fitted inhibition curve with a large enough effect; inconclusive = small, poorly fitted or top-dose-only effect; inactive = flat fitted curve, though single readings scatter.
Classes used: active, inactive

CC(O)CN(C)C (stereo not given) | inactive
O=C(O)Cc1nn(Cc2ccc(Br)cc2F)c(=O)c2ccccc12 | inactive
C[Si](C)(C)O[Si](C)(C)C | inactive
CN(C)c1ccc(C(=C2C=CC(=[N+](C)C)C=C2)c2c(O)c(S(=O)(=O)[O-])cc3cc(S(=O)(=O)O)ccc23)cc1 | active
CCOC(=O)C1=C(COCCN)NC(C)=C(C(=O)OC)C1c1ccccc1Cl (stereo not given) | inactive
CC(CNC(=O)c1cccnc1)NC(=O)c1cccnc1 (stereo not given) | inactive
NC(=O)[C@@H]1CCCN1C(=O)[C@H](Cc1cnc[nH]1)NC(=O)[C@@H]1CCC(=O)N1 | inactive
O=C(O[C@H]1CN2CCC1CC2)N1CCc2ccccc2[C@@H]1c1ccccc1 | inactive
CC/C(=C(/CC)c1ccc(OP(=O)(O)O)cc1)c1ccc(OP(=O)(O)O)cc1 | inactive
Cc1cccc(C)c1NC(=O)NC1=CCCN1C | inactive
O=C(O)c1ccc(OCCn2ccnc2)cc1 | inactive
Cc1ncc[nH]1 | inactive
N#Cc1ccc2c(c1)N(CCCN1CCC(O)CC1)c1ccccc1S2 | inactive
COc1cc(S(C)=O)ccc1-c1nc2ncccc2[nH]1 (stereo not given) | inactive
O=C(O)COc1ccccc1/C=N/NC(=O)c1ccncc1 | inactive
CC1C(=O)CC2C3(C)CCC2(C(C)C(=O)O)C(=O)C13 (stereo not given) | inactive
O=C(O)/C=C/c1ccccc1 | inactive
CC(C)(C)CC(C)(C)c1cc(Cc2cc(C(C)(C)CC(C)(C)C)cc(-n3nc4ccccc4n3)c2O)c(O)c(-n2nc3ccccc3n2)c1 | inactive
O.O.O.O.O.O.O.O=S(=O)([O-])[O-].[Co+2] | inactive
O=C(NNCNNC(=O)c1ccncc1)c1ccncc1 | inactive
F[Si-2](F)(F)(F)(F)F | inactive
CN(C)CCC=C1c2ccccc2C(C)(C)c2ccccc21 | active
C=C(C)C1CC=C(C)CC1 (stereo not given) | inactive
CCc1ccc(S(=O)(=O)O)cc1 | inactive
CC(=O)[C@H]1CC[C@H]2[C@@H]3C=CC4=CC(=O)CC[C@@]4(C)[C@H]3CC[C@]12C | inactive
